These entries and their values trace back to patent US20100204119A1.

testSystem: Human full-length diacylglycerol:acylCoA acyltransferase 1 (DGAT-1) (Homo sapiens)
Sequence (O75907 whole entry): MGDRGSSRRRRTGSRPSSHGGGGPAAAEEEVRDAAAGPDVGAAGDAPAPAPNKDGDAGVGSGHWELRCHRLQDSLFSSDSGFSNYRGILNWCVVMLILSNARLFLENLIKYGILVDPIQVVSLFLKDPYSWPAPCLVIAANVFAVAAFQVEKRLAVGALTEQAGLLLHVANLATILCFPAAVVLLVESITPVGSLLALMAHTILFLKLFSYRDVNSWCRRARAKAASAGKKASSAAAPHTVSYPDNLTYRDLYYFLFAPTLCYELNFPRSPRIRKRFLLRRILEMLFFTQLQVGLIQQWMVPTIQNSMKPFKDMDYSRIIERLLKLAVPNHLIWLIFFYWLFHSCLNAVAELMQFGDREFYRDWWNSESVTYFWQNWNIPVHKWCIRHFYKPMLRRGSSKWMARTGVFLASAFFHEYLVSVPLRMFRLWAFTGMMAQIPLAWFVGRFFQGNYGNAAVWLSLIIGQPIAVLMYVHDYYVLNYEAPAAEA
testDetails: In vitro assay for inhibition of DGAT-1 activity (DGAT 1 Reduced Microsome Multidose Assay)
assayConditions: Trial 2 Human IC50, Trial 2: as Trial 4 except eleven concentrations of inhibitor instead of eight; average where n > 1
readoutName: pIC50
Note on units: pIC50 is unitless, being -log10 of a concentration expressed in mol/L.

> print(dat)
                                   compound  readoutname  assayvalue
1  Cc1cc(C(=O)N2CCC(c3ccc(N4CCOc5ncnc(N)c5C4=O)cc3)CC2)no1 [Example 7V]        pIC50        6.95
2  CS(=O)(=O)CC(=O)N1CCC(c2ccc(N3CCOc4ncnc(N)c4C3=O)cc2)CC1 [Example 7T]        pIC50        6.91
3  Nc1ncnc2c1C(=O)N(c1ccc(C3CCN(C(=O)CC4CCOC4)CC3)cc1)CCO2 (centres unmarked) [Example 7M]        pIC50        6.94

Task: Give recorded pIC50 with Human full-length diacylglycerol:acylCoA acyltransferase 1 (DGAT-1) (Homo sapiens) for the following compound: C[C@H](O)CC(=O)N1CCC(c2ccc(N3CCOc4ncnc(N)c4C3=O)cc2)CC1 [Example 7D]
Output: 7.01

Task: Lookup: pIC50 / Human full-length diacylglycerol:acylCoA acyltransferase 1 (DGAT-1) (Homo sapiens) / Cc1ocnc1C(=O)N1CCC(c2ccc(N3CCOc4ncnc(N)c4C3=O)cc2)CC1 [Example 7G]
Output: 7.05

Task: Give pIC50 (Human full-length diacylglycerol:acylCoA acyltransferase 1 (DGAT-1) (Homo sapiens)) of the following compound: Nc1ncnc2c1C(=O)N(c1ccc(C3CCN(C(=O)Cn4cccn4)CC3)cc1)CCO2 [Example 7AC]
Output: 7.14

Task: Lab note: need pIC50 for Nc1ncnc2c1C(=O)N(c1ccc(C3CCN(C(=O)C4CCCOC4)CC3)cc1)CCO2 (centres unmarked) [Example 7Z] on Human full-length diacylglycerol:acylCoA acyltransferase 1 (DGAT-1) (Homo sapiens), anyone have it?
Output: 6.98

Task: Can you look up pIC50 on Human full-length diacylglycerol:acylCoA acyltransferase 1 (DGAT-1) (Homo sapiens) for Nc1ncnc2c1C(=O)N(c1ccc(C3CCN(C(=O)C4CCCO4)CC3)cc1)CCO2 (centres unmarked) [Example 7X] ?
Output: 7.05

Task: # get_value(readout= pIC50, system= Human full-length diacylglycerol:acylCoA acyltransferase 1 (DGAT-1) (Homo sapiens)) for Nc1ncnc2c1C(=O)N(c1ccc(C3CCN(C(=O)Cc4ncccn4)CC3)cc1)CCO2 [Example 7N]
Output: 6.92

Task: Report pIC50 for Cc1ncoc1C(=O)N1CCC(c2ccc(N3CCOc4ncnc(N)c4C3=O)cc2)CC1 [Example 7K] tested on Human full-length diacylglycerol:acylCoA acyltransferase 1 (DGAT-1) (Homo sapiens).
Output: 6.89

Task: Look up pIC50 with Human full-length diacylglycerol:acylCoA acyltransferase 1 (DGAT-1) (Homo sapiens) for this compound: Nc1ncnc2c1C(=O)N(c1ccc(C3CCN(C(=O)CC4CCOCC4)CC3)cc1)CCO2 [Example 7O]
Output: 6.86
